# System: Rattus norvegicus
# assay-protocol: Inhibition of histamine-stimulated gastric acid secretion in lumen-perfused stomach of anesthetized rats after 1 mg/kg iv administration
# Type: functional
Hi there, I'd appreciate the recorded inhibition in vivo at 1 mg/kg for every entry that follows.
Numbers only, in %.

1. COc1ccc(CC/N=C(\N)Nc2nc(-c3cccc(CNC(C)=O)n3)cs2)cc1: 18
2. CN/C(=N\CCSCc1nc[nH]c1C)NC#N: 53

Switching to the query record.
Sure, the documented inhibition in vivo at 1 mg/kg for CCCC/N=C(\N)Nc1nc(-c2csc(CNC(C)=O)n2)cs1 is 50

* * *

# System: Rattus norvegicus
# assay-protocol: Inhibition of histamine-stimulated gastric acid secretion in lumen-perfused stomach of anesthetized rats after 1 mg/kg iv administration
# Format: functional
inhibition in vivo at 1 mg/kg vs 70%: at or above is Fulfilled, below is Not fulfilled.

Observe how each entry below is paired with its result.
1) COc1ccccc1CC/N=C(\N)Nc1nc(-c2csc(CNC(C)=O)n2)cs1: Not fulfilled
2) CCCC/N=C(\N)Nc1nc(-c2cccc(CNC(C)=O)n2)co1: Fulfilled
3) COc1ccccc1CC/N=C(\N)Nc1nc(-c2ncc(CNC(C)=O)o2)cs1: Not fulfilled
4) CCCC/N=C(\N)Nc1nc(-c2ccc(CNC(C)=O)o2)co1: Not fulfilled

Incoming: Is inhibition in vivo at 1 mg/kg at least 70%? Consider CCCC/N=C(\N)Nc1nc(-c2cccc(CNC(C)=O)n2)cs1
Outgoing: Fulfilled

Incoming: API: above_or_equal(metric=inhibition in vivo at 1 mg/kg, cutoff=70%) for item COc1ccccc1CC/N=C(\N)Nc1nc(-c2cccc(CNC(C)=O)c2)co1
Outgoing: Not fulfilled

Incoming: Is inhibition in vivo at 1 mg/kg for COc1ccccc1CC/N=C(\N)Nc1nc(-c2cccc(CNC(C)=O)n2)cs1 at or above 70%?
Outgoing: Not fulfilled

Incoming: Reported inhibition in vivo at 1 mg/kg at or above 70%? CC(=O)NCc1cccc(-c2csc(N/C(N)=N/CCC(C)C)n2)n1
Outgoing: Fulfilled

Incoming: Does the reported inhibition in vivo at 1 mg/kg for CCCC/N=C(\N)Nc1nc(-c2cccc(CNC(C)=O)c2)co1 fall at or above the 70% mark?
Outgoing: Not fulfilled
